B1: TPR 5TU (parent)
chain: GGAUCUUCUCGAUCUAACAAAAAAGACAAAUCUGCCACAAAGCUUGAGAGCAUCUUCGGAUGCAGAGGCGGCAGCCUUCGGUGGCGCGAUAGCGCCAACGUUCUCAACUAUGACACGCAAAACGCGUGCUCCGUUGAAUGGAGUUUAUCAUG

Variants of: B1
Assay: polymerase ribozyme fitness, log enrichment relative to wild type (log ratio); higher = more active; in vitro selection for triplet polymerase activity
Variants at the floor of the assay were thinned out.
Rule: condition met for polymerase ribozyme fitness (log ratio) not less than -2, condition not met for anything less.

Some solved entries appear below for comparison.
MUTATION_STRING	CLASS_ASSIGNMENT
U44G U45G C72G U144C A147G	condition not met
A49G G81C A91G A98U	condition not met
C14G G59A A73U C87G	condition not met
A64G G68C A142G G143A	condition not met
G11A A21U C85U	condition met
G117A C123A	condition met

Check the entry G11C A29G A40U C76U C87U : does polymerase ribozyme fitness (log ratio) equal or exceed -2?
condition not met

Check the entry A16U U31A A64U C85U A91G C131A : does polymerase ribozyme fitness (log ratio) equal or exceed -2?
condition not met

Check the entry U33A U56A C75G G81U G83A U127A : does polymerase ribozyme fitness (log ratio) equal or exceed -2?
condition not met
